Test target: Cholesteryl ester transfer protein (Homo sapiens, UniProt P11597)
Sequence (P11597 whole entry): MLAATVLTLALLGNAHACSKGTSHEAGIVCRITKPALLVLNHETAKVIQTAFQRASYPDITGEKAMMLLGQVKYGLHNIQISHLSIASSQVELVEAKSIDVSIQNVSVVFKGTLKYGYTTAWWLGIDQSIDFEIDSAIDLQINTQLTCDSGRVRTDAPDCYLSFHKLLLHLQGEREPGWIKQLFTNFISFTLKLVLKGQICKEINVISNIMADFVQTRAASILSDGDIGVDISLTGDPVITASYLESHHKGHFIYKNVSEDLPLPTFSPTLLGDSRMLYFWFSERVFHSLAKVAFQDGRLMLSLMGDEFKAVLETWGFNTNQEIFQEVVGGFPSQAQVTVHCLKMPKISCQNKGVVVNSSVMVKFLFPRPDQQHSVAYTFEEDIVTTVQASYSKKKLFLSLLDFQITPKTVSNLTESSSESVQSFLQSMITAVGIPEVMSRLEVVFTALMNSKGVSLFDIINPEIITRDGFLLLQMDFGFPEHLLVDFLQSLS
Method summary: Inhibition of human recombinant CETP by fluorescence transfer assay
Quantity: pIC50
// pIC50: -log10(molar conc.)

Some entries whose results are on file:
[[record]]
chemical_string = "CC(C)c1nc2c(c3c1[C@@H](c1ccc(F)cc1)OC31CCCC1)[C@@H](O)CC(C)(C)C2"
reported_result = 6.10

[[record]]
chemical_string = "CC(C)c1nc2c(c3c1[C@@H](c1ccc(C(F)(F)F)cc1)OC31CCCC1)[C@@H](O)CC(C)(C)C2"
reported_result = 7.29

[[record]]
chemical_string = "CC(C)c1nc2c(c3c1[C@@H](c1ccc(C(F)(F)F)cn1)OC31CCCC1)[C@@H](O)CC(C)(C)C2"
reported_result = 7.02

[[record]]
chemical_string = "CC(C)c1nc2c(c3c1[C@H](c1ccc(C(F)(F)F)cc1)OC31CCOCC1)[C@H](O)CC(C)(C)C2"
reported_result = 6.24


q: Find the measured pIC50 of CC(C)c1nc2c(c3c1[C@@H](c1ccc(C(F)(F)F)cc1)OC3(C)C)[C@@H](O)CC(C)(C)C2 with Cholesteryl ester transfer protein (Homo sapiens, UniProt P11597) as test system.
a: 6.26

q: Find the measured pIC50 of CC(C)c1nc2c(c3c1[C@@H](c1ccc(C(C)(C)C)cc1)OC31CCCC1)[C@@H](O)CC(C)(C)C2 with Cholesteryl ester transfer protein (Homo sapiens, UniProt P11597) as test system.
a: 7.54

q: Find the measured pIC50 of CC(C)c1nc2c(c3c1[C@@H](c1ccccc1)OC31CCCC1)[C@@H](O)CC(C)(C)C2 with Cholesteryl ester transfer protein (Homo sapiens, UniProt P11597) as test system.
a: 5.39

q: Find the measured pIC50 of CC(C)c1nc2c(c3c1[C@@H](c1ccc(C(F)(F)F)nc1)OC31CCCC1)[C@@H](O)CC(C)(C)C2 with Cholesteryl ester transfer protein (Homo sapiens, UniProt P11597) as test system.
a: 6.87
